Source: patent US10065941B2

# maps each entry to its IC50
# system: human P2X3 receptor (Homo sapiens (Human), UniProt P56373)
# Sequence (P56373 whole entry): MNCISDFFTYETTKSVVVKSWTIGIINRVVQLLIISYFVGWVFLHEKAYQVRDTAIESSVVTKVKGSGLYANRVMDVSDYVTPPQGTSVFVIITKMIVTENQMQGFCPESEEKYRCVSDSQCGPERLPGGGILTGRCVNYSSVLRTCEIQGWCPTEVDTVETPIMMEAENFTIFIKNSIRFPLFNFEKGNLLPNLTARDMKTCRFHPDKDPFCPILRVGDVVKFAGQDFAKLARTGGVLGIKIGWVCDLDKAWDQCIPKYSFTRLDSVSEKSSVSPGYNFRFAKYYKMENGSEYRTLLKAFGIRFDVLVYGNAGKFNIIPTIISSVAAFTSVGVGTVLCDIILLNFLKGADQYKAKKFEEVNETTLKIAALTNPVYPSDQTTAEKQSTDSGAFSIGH
# runDescription: Evaluation of human P2X3 receptor inhibitory activity (Test Example 1)
# protocolConditions: C6BU-1 cell transfected with human P2X3 receptor gene, FLIPR 384
Could you give me the number in nM? Just the number is fine.

Below are worked cases with known answers.
[[record]]
smilesentry = "COC(=O)C(C)(C)Cn1c(=O)[nH]/c(=N\\c2ccc(Oc3cccc(Cl)n3)cc2)n(Cc2ccc(Cl)cc2)c1=O"
unitinfo = "nM"
observedresult = 25

[[record]]
smilesentry = "COC(=O)[C@H](C)[C@H](C)n1c(=O)[nH]/c(=N\\c2ccc(Oc3cnc(Cl)cn3)cc2)n(Cc2ccc(Cl)cc2)c1=O"
unitinfo = "nM"
observedresult = 18


Read the next record carefully.
Problem: Query for human P2X3 receptor (Homo sapiens (Human), UniProt P56373): what IC50 does the record show for `COC(=O)[C@@H](C)Cn1c(=O)[nH]/c(=N\c2ccc(Oc3ccc(C)cn3)cc2)n(Cc2ccc(Cl)cc2)c1=O` ?
Solution: 6
